# Target Entity: UniProt P21589
# Sequence (P21589 27-574): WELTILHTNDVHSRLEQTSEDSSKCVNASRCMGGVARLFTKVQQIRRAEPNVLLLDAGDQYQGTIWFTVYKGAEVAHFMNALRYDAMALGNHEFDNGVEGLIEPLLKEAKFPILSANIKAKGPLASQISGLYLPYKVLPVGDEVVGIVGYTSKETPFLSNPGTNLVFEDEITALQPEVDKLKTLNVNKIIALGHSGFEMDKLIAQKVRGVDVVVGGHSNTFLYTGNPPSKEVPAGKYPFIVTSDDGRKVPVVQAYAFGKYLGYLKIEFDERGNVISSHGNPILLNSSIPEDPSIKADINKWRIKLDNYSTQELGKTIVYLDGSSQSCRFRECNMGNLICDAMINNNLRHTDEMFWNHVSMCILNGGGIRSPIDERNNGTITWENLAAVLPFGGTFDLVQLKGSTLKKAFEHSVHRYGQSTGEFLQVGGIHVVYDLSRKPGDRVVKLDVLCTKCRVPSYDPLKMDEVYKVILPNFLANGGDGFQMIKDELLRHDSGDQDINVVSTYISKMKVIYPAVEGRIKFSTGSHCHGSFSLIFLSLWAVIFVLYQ
# Experiment: Biochemical CD73 Assay
# Recorded Conditions: recombinant human CD73 2 nM, AMP 40 μM, Malachite Green free phosphate detection
pIC50: −log10 of the molar value.
Parameter Measured: pIC50

{"columns": ["Smiles Notation", "Meas Value"],
 "data": [
  ["COC[C@@](OC[C@H]1O[C@@H](n2ncc3c(NC4CCCC4)nc(Cl)nc32)[C@H](O)[C@@H]1O)(C(=O)NS(=O)(=O)N1CCCC1=O)P(=O)(O)O", 9.32],
  ["COC[C@@](OC[C@H]1O[C@@H](n2ncc3c(NC4CCCC4)nc(Cl)nc32)[C@H](O)[C@@H]1O)(C(=O)NS(=O)(=O)N1CC[C@H](O)C1)P(=O)(O)O", 8.52]
]}

[P] COC[C@](OC[C@H]1O[C@@H](n2ncc3c(NC4CCCC4)nc(Cl)nc32)[C@H](O)[C@@H]1O)(C(=O)NS(=O)(=O)N(C)C)P(=O)(O)O
[Q] COC[C@@](OC[C@H]1O[C@@H](n2ncc3c(NC4CCCC4)nc(Cl)nc32)[C@H](O)[C@@H]1O)(C(=O)NS(=O)(=O)N(C)C)P(=O)(O)O
[R] COC[C@@](OC[C@H]1O[C@@H](n2ncc3c(NC4CCCC4)nc(Cl)nc32)[C@H](O)[C@@H]1O)(C(=O)NS(=O)(=O)N1CCC1)P(=O)(O)O
Exercise: Arrange the 3 compounds from largest to smallest pIC50. Your answer should be the labels, listed in the requested order.
Key: R, Q, P

[1] COC[C@@](OC[C@H]1O[C@@H](n2ncc3c(NC4CCCC4)nc(Cl)nc32)[C@H](O)[C@@H]1O)(C(=O)NS(=O)(=O)N1CC[C@@H](O)C1)P(=O)(O)O
[2] COC[C@](OC[C@H]1O[C@@H](n2ncc3c(NC4CCCC4)nc(Cl)nc32)[C@H](O)[C@@H]1O)(C(=O)NS(=O)(=O)N1CCC1)P(=O)(O)O
Exercise: Pick one, 1 or 2 : lowest reported pIC50. // output: label of the selected item
Key: 2
